Reference for the values: patent US8026218

system: human δ opioid receptor (human, UniProt P41143 1-372)
Sequence (P41143 whole entry, stated change not applied): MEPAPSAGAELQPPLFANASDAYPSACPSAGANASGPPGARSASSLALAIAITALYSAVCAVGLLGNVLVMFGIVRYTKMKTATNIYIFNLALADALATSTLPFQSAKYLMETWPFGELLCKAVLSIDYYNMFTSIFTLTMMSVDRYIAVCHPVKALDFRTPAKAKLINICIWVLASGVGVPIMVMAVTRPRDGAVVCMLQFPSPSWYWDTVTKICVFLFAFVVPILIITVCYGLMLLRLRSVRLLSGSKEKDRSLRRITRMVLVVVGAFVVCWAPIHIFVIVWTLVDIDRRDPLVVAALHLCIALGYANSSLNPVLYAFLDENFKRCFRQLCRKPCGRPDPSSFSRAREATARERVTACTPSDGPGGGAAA
assay.overview: cell-based or functional assay
Bridge positions count the residues as written; N and C are the ends. Square brackets hold non-standard residues; d marks the D form. Ends that are not written are not given here. * marks the point of attachment. NH(3,5-(CF3)2-benzyl) = FC(F)(F)c1cc(CN*)cc(C(F)(F)F)c1; Nle = CCCC[C@H](N)C(=O)O
Kind request: treat -9 as inclusive, so [35S]GTPγS binding LogEC50 at -9 or higher is 1.0, anything lower is 0.0.

Y[dC]GF[Nle]PCW-{NH(3,5-(CF3)2-benzyl)} (disulfide 2-7, cyclic; also called TY035; [D-Cys2, Cys7]TY027) [Tyr[DCysGlyPheNleProCys]TrpNHBn(CF3)2]	0.0
Y[dC]GF[Nle]P[dC]W-{NH(3,5-(CF3)2-benzyl)} (disulfide 2-7, cyclic; also called TY038; [D-Cys2, D-Cys7]TY027) [Tyr[DCysGlyPheNleProDCys]TrpNHBn(CF3)2]	1.0
Y[dA]GFMPLW-{NH(3,5-(CF3)2-benzyl)} (also called TY027) [TyrDAlaGlyPheMetProLeuTrpNHBn(CF3)2]	1.0

Field: next binder
Exam item: Is the recorded value of [35S]GTPγS binding LogEC50 equal to or greater than -9 for this binder? Y[dC]GF[dC]PLW-{NH(3,5-(CF3)2-benzyl)} (disulfide 2-5, cyclic; also called TY037; [D-Cys2, D-Cys5]TY027) [Tyr[DCysGlyPheDCys]ProLeuTrpNHBn(CF3)2]
Marked response: 1.0
